# maps each entry to its Ki
- target-system: hCA IX (Homo sapiens, UniProt Q16790)
- Construct: gene CA9; recombinant
- test-summary: stopped-flow CO2 hydrase assay
- Assay type: biochemical
- condition-label: read-out: KI (μM)^a^,b / hCA IX
Please give a number only; it is taken to be in µM.

# count of solved cases: 4
compound: CC(=NNc1ccccc1)c1oc(=O)c2ccccc2c1C [X4]
recorded-result: 3.9
--
compound: O=Cc1cn(-c2ccccc2)nc1-c1cc2ccccc2c(=O)o1 [X6]
recorded-result: 7.1
--
compound: Cc1c(-c2nn(-c3ccccc3)cc2C=O)oc(=O)c2ccccc12 [X9]
recorded-result: 8.9
--
compound: Cc1c(-c2nn(-c3ccc(Cl)cc3)cc2C=O)oc(=O)c2ccccc12 [X10]
recorded-result: 8.1

// moving on: another record for Ki
Problem: What value of measured Ki is listed for O=C1NC(=S)NC(=O)C1=Cc1cn(-c2ccccc2)nc1-c1cc2ccccc2c(=O)o1 [X16] ?
Result: 49.7
